Ref: patent US20100267561A1

# Tested on: woolly cupgrass (Eriochloa villosa)
# methodNotes: Test B pre-/postemergence plant response
# Type: in vivo
# assayConditions: Preemergence, 62 g ai/ha; scale 0 to 100
Measured Plant response rating, Cupgrass, Woolly, listed per entry.
observationType: Plant response rating, Cupgrass, Woolly

molecule | targetDesc | measured
CCc1cc(-c2ccc(Cl)cc2)nn1-c1c(OC(=O)C(C)(C)C)cnn(C)c1=O [Compound 40] | woolly cupgrass (Eriochloa villosa) | 100
CCc1cc(-c2ccc(C(F)(F)F)cc2)nn1-c1c(OS(C)(=O)=O)cnn(C)c1=O [Compound 19] | woolly cupgrass (Eriochloa villosa) | 100
Cc1cc(-c2ccc(C(F)(F)F)cc2)nn1-c1c(OC(=O)C(C)(C)C)cnn(C)c1=O [Compound 2] | woolly cupgrass (Eriochloa villosa) | 80
Cc1cc(-c2ccc(Cl)cc2)nn1-c1c(OC(=O)C(C)C)cnn(C)c1=O [Compound 34] | woolly cupgrass (Eriochloa villosa) | 95
CCc1cc(-c2ccc(F)cc2)nn1-c1c(O)cnn(C)c1=O [Compound 25] | woolly cupgrass (Eriochloa villosa) | 80
Cn1ncc(O)c(-c2nn(-c3ccc(Cl)cc3)cc2Cl)c1=O [Compound 28] | woolly cupgrass (Eriochloa villosa) | 98
